- target: CB1 receptor (Homo sapiens, UniProt P21554)
- Sequence (P21554 whole entry): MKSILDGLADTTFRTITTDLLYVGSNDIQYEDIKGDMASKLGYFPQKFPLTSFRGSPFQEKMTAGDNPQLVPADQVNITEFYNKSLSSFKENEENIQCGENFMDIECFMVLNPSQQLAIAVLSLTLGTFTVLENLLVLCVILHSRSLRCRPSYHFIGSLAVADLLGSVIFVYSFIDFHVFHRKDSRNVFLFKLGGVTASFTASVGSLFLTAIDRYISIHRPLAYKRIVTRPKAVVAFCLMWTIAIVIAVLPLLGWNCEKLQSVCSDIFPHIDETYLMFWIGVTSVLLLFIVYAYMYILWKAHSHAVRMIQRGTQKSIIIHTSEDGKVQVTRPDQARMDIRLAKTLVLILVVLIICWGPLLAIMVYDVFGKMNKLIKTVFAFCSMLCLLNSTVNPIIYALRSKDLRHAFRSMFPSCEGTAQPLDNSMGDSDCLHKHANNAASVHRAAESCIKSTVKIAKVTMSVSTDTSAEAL
- test: Human cannabinoid receptor bonding inhibition test ([3H]CP55940), CB1
- Assay type: binding
- Set-up: expressed in transfected cells; membrane fraction
Mark satisfied only when Ki stays strictly below 20 nM. Values equal to the cut-off are not satisfied.

Solved cases below.
> print(dat)
                                   compound          class
1  COC(=O)[C@@H](NC(=O)c1cc2c(n(Cc3ccc(F)cc3)c1=O)CCCCCC2)C(C)(C)C      satisfied
2  CCOC(=O)C1CCCCC1NC(=O)c1cc2c(n(CCCNC(C)=O)c1=O)CCCCCC2 (stereo not drawn)  not satisfied
3  O=C(O)CC1(NC(=O)c2cc3c(n(CC4CCCCC4)c2=O)CCCCCC3)CCCCC1  not satisfied
4  COC(=O)[C@@H](NC(=O)c1cc(C)c(C)n(Cc2ccc(F)cc2)c1=O)C(C)C      satisfied

Exercise: Does the reported Ki of the following compound sit strictly below 20 nM? CC(C)OC(=O)C(C)(C)NC(=O)c1cc2c(n(CC3CCCCC3)c1=O)CCCCCC2
Key: satisfied

Exercise: Consider the compound CCc1c(C)cc(C(=O)N[C@H](C(=O)OC)C(C)C)c(=O)n1Cc1ccc(F)cc1 . Is its Ki strictly less than 20 nM?
Key: satisfied

Exercise: In plain terms, does CC(C)(NC(=O)c1cc2c(n(CC3CCCCC3)c1=O)CCCCCC2)C(=O)N1CCC(NS(=O)(=O)C(C)(C)C)CC1 come in under 20 nM for Ki?
Key: not satisfied

Exercise: Is it true that Ki reported for CCc1c(C)cc(C(=O)N[C@H](C(=O)OC)C(C)C)c(=O)n1CC1CCCCC1 is less than 20 nM?
Key: satisfied

Exercise: Item CC(C)(NC(=O)c1cc2c(n(CC3CCCCC3)c1=O)CCCCCC2)C(=O)N1CCC(C(=O)N2CCOCC2)CC1 : Ki beneath 20 nM, strictly?
Key: not satisfied

Exercise: Is 20 nM strictly greater than the compound's reported Ki? compound: COC(=O)[C@@H](NC(=O)c1cc2c(n(Cc3ccc(F)cc3)c1=O)CCCCCC2)C(C)C
Key: satisfied

Exercise: Is it true that Ki reported for CSC(=O)C(C)(C)NC(=O)c1cc2c(n(CC3CCCCC3)c1=O)CCCCCC2 is less than 20 nM?
Key: satisfied

Exercise: Item CCCCNC(=O)C1CCCN(C(=O)C(C)(C)NC(=O)c2cc3c(n(CC4CCCCC4)c2=O)CCCCCC3)C1 (stereo not drawn) : Ki beneath 20 nM, strictly?
Key: not satisfied

Exercise: Say whether its Ki is strictly beneath 20 nM. Entry: CC(C)(C)OC(=O)NC1CCN(C(=O)C(C)(C)NC(=O)c2cc3c(n(CC4CCCCC4)c2=O)CCCCCC3)CC1
Key: not satisfied

Exercise: Strictly below 20 nM in Ki? CCCCn1c2c(cc(C(=O)NC3(C(=O)OC)CCCCC3)c1=O)CCCCCC2
Key: satisfied

* * *

- target: CB2 receptor (Homo sapiens, UniProt P34972)
- Sequence (P34972 whole entry): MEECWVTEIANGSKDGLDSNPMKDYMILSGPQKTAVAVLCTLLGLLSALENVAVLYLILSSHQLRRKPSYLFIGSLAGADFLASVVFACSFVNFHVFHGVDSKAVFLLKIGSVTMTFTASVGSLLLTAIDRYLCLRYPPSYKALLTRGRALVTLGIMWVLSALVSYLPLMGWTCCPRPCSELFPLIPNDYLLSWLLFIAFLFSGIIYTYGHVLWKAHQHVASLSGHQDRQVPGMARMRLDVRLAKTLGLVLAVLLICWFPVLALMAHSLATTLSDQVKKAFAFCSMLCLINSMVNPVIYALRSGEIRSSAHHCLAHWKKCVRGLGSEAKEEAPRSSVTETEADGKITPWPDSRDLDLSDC
- test: cAMP formation inhibition experiment through a cannabinoid receptor (forskolin stimulation), CB2
- Assay type: cell-based
- Parameters: expressed in transfected cells; host or cells: CHO cells
IC50 values, listed per item
A number alone suffices; assume nM.

Example results:
> print(dat)
                                   compound                                    target  unit.name  result.value
1  CC(C)(NC(=O)c1cc2c(n(CC3CCCCC3)c1=O)CCCCCC2)C(=O)C1CCCC(C(N)=O)N1 (stereo not shown) [Compound I-580]  CB2 receptor (Homo sapiens, UniProt P34972)         nM            48
2  O=C(N[C@@H](C(=O)O)c1ccccc1)c1cc2c(n(CCCC(F)(F)F)c1=O)CCCCCC2 [Compound X-54]  CB2 receptor (Homo sapiens, UniProt P34972)         nM           3.7
3  CC(C)(NC(=O)c1cc2c(n(CC3CCCCC3)c1=O)CCCCCC2)C(=O)N1CCC(C(=O)N2CCCCC2)CC1 [Compound I-601]  CB2 receptor (Homo sapiens, UniProt P34972)         nM           6.3

Exercise: Consider the compound CC(C)(NC(=O)c1cc2c(n(CC3CCCCC3)c1=O)CCCCCC2)C(N)=O [Compound I-002] and give its measured IC50.
Key: 4.4
